test system: PDPK1; details: concentration: 1 μM,replicates: in singlicate; n = 1;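 note: KINOMEscan kinase panel screen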
observation-type: %Inh (%)

smiles_entry=O=C(Nc1n[nH]c2cc(-c3ccco3)ccc12)C1CC1 assay_value=0
smiles_entry=CN(c1cccc(CNc2nc(Nc3ccc4c(c3)CC(=O)N4)ncc2C(F)(F)F)c1)S(C)(=O)=O assay_value=65
smiles_entry=COc1cc2ncn(-c3cc(OCC4CCCCC4)c(C(N)=O)s3)c2cc1OC assay_value=17
smiles_entry=CC(=O)c1c(-c2ccncc2)[nH]c(-c2ccncc2)c1C assay_value=0
smiles_entry=CCCC(=O)Nc1n[nH]c2ncccc12 assay_value=0
smiles_entry=COc1cccc(OC)c1C(=O)Nc1cccc(-c2nn3ccccc3c2-c2ccnc(Nc3cccc(F)c3)n2)c1 assay_value=4
smiles_entry=CN(c1ccc2c(c1)nc(NCc1ccc(F)cc1)n2C)c1ccnc(Nc2ccc(CS(C)(=O)=O)cc2)n1.Cl assay_value=0
smiles_entry=Cn1ccc2ncnc(Oc3ccc(NC(=O)Nc4ccnc(C(F)(F)F)c4)c(Cl)c3)c21 assay_value=0
smiles_entry=COc1cccc(C2=C(Nc3cccc(Cl)c3)C(=O)NC2=O)c1 assay_value=0

* * *

test system: DCAMKL3; construct: gene DCLK3; settings: concentration: 1 μM,replicates: in singlicate; n = 1
Catalogue of %Inh readings, one per entry.
observation-type: %Inh (%)

compound=O=C(Nc1cccc(C(F)(F)F)c1)c1cccc(Oc2ccc3nccn3n2)c1 assay_value=9
compound="COC(=O)c1cccc(NC(=O)NC2CCN(c3ccnc(NCc4ccc(F)cc4)n3)CC2)c1 [GSK1379860]" assay_value=3
compound="CN1CCN(CCNc2nc3cc(Oc4ccc(NC(=O)Nc5cc(C(F)(F)F)ccc5F)cc4)ccc3[nH]2)CC1.Cl.Cl [GW768504]" assay_value=0
compound=CS(=O)(=O)c1cccc(CNc2nc(Nc3ccc4c(c3)[C@@H]3C[C@@H]4CNC3=O)ncc2C(F)(F)F)c1 assay_value=0
compound="C[C@@H](Oc1cc(-n2cnc3cc(-c4cnn(C)c4)ccc32)sc1C(N)=O)c1ccccc1Cl [GSK580432]" assay_value=0
compound="Nc1nccc(-c2ccc3c(N)n[nH]c3c2)n1 [GSK1034945]" assay_value=36

* * *

Catalogue of %Inh readings, one per entry.
system: LIMK2; conditions: concentration: 1 μM,replicates: in singlicate; n = 1
observation-type: %Inh (%)

smiles_entry=c1ccc(Oc2ccc(Nc3ccnc4ccc(-c5ccccn5)cc34)cc2)cc1 test_target=LIMK2 assay_value=0
smiles_entry=Cn1ccc2ncnc(Oc3ccc(NC(=O)Nc4cccc(C(F)(F)F)c4)c(F)c3)c21 test_target=LIMK2 assay_value=2
smiles_entry=O=C(NOCC1CC1)c1cc(Br)c(F)c(F)c1Nc1ccc(I)cc1Cl test_target=LIMK2 assay_value=0
smiles_entry=COc1cc2ncn(-c3cc(OCC4CCCCC4)c(C(N)=O)s3)c2cc1OC test_target=LIMK2 assay_value=13
smiles_entry=O=C1NCCc2[nH]c(-c3ccncc3)cc21 test_target=LIMK2 assay_value=2
smiles_entry=CC(=O)Nc1nc2cnc(Nc3cc(NC(=O)c4cccc(CC(C)(C)C#N)c4)ccc3C)nc2s1 test_target=LIMK2 assay_value=2
smiles_entry=CCn1c(-c2nonc2N)nc2cncc(Br)c21 test_target=LIMK2 assay_value=5
smiles_entry=Cn1ccc2ncnc(Oc3ccc(NC(=O)Nc4cncc(C(F)(F)F)c4)c(Cl)c3)c21 test_target=LIMK2 assay_value=0
smiles_entry=Cn1ccc2ncnc(Oc3ccc(NC(=O)Nc4ccnc(C(F)(F)F)c4)c(Cl)c3)c21 test_target=LIMK2 assay_value=0

* * *

tested on: TYK2(JH1domain-catalytic); settings: concentration: 1 μM,replicates: in singlicate; n = 1
Catalogue of %Inh readings, one per entry.
observation-type: %Inh

compound="FC(F)(F)c1cc(Br)cc(Nc2nccc(-c3cnn4ncccc34)n2)c1 [GW810578]" test_target=TYK2(JH1domain-catalytic) assay_value=0%
compound="CN1CCN(CCCNc2nccc(-c3c(-c4ccc(F)cc4)nn4cc(C(N)=O)ccc34)n2)CC1 [GW622475]" test_target=TYK2(JH1domain-catalytic) assay_value=0%
compound="Cc1nnc(-c2ccc3occ(-c4ccc(S(C)=O)cc4)c3n2)o1 (centres unmarked)" test_target=TYK2(JH1domain-catalytic) assay_value=0%
compound="COc1cc2c(Nc3ccc(NC(=O)c4ccccc4)cc3)ncnc2cc1OCCCN1CCOCC1 [GSK301329]" test_target=TYK2(JH1domain-catalytic) assay_value=2%
compound="Cc1ccc(Nc2ccnc(Nc3ccc4c(c3)CS(=O)(=O)C4)n2)cc1O.Cl [GW579362]" test_target=TYK2(JH1domain-catalytic) assay_value=96.9%

* * *

system: MLCK; construct: gene MYLK3; conditions: concentration: 1 μM,replicates: in singlicate; n = 1
Catalogue of %Inh readings, one per entry.
observation-type: %Inh (%)

molecule=O=C(Nc1ccccc1)c1cccc(Oc2ccc3nccn3n2)c1 test_target=MLCK observation_type=%Inh value_units=% assay_value=1
molecule="CCNCC(Cc1ccccc1)NC(=O)c1cc(Br)c(-c2ccnc3[nH]ccc23)s1.Cl.Cl (stereo not shown)" test_target=MLCK observation_type=%Inh value_units=% assay_value=17
molecule="COc1cc(Nc2nccc(N3CCC(NC(=O)c4cccc(C#N)c4)C3)n2)cc(OC)c1OC (stereo not shown)" test_target=MLCK observation_type=%Inh value_units=% assay_value=0
molecule=CS(=O)(=O)c1cccc(CNc2nc(Nc3ccc4c(c3)[C@@H]3C[C@@H]4CNC3=O)ncc2C(F)(F)F)c1 test_target=MLCK observation_type=%Inh value_units=% assay_value=15
molecule=O=c1[nH]cc(-c2ccc(O)cc2)c2sc(-c3ccncc3)cc12 test_target=MLCK observation_type=%Inh value_units=% assay_value=40
molecule=Cl.c1ccc(Oc2ccc(Nc3ccnc4cc(-c5ccc(CN6CCNCC6)o5)ccc34)cc2)nc1 test_target=MLCK observation_type=%Inh value_units=% assay_value=4
molecule=CC(=O)Nc1ccc(-c2cc3ncnc(SCC(=O)O)c3s2)cc1 test_target=MLCK observation_type=%Inh value_units=% assay_value=40
molecule=CSc1nccc(-c2c(-c3ccc(F)cc3)ncn2CCCN2CCOCC2)n1.Cl test_target=MLCK observation_type=%Inh value_units=% assay_value=0
molecule=CCCC(=O)Nc1n[nH]c2ncccc12 test_target=MLCK observation_type=%Inh value_units=% assay_value=0
molecule=CN1CCN(CCNc2nc3cc(Oc4ccc(NC(=O)Nc5cc(C(F)(F)F)ccc5F)cc4)ccc3[nH]2)CC1.Cl.Cl test_target=MLCK observation_type=%Inh value_units=% assay_value=0
molecule=CC(C)S(=O)(=O)N1CCN(Cc2ccc3c(c2)nc(NC(=O)c2ccsc2)n3C[C@H](O)c2ccccc2)CC1 test_target=MLCK observation_type=%Inh value_units=% assay_value=0
molecule="CS(=O)c1ccc(-c2coc3ccc(-c4n[nH]c(=O)o4)cc23)cc1 (stereo not shown)" test_target=MLCK observation_type=%Inh value_units=% assay_value=32
molecule=C[C@@H](Oc1cc(-n2cnc3ccc(-c4ccncc4)cc32)sc1C(N)=O)c1ccccc1Cl test_target=MLCK observation_type=%Inh value_units=% assay_value=32
molecule="COc1cccc(CNC(=O)NC2CCN(c3ccnc(Nc4cc(OC)c(OC)c(OC)c4)n3)C2)c1 (stereo not shown)" test_target=MLCK observation_type=%Inh value_units=% assay_value=6
molecule=Cn1ccc2ncnc(Oc3ccc(NC(=O)Nc4cncc(C(F)(F)F)c4)c(Cl)c3)c21 test_target=MLCK observation_type=%Inh value_units=% assay_value=0
molecule="N#Cc1cccc(C(=O)NC2CCN(c3ccnc(Nc4ccc(F)cc4)n3)C2)c1 (stereo not shown)" test_target=MLCK observation_type=%Inh value_units=% assay_value=0
molecule=CNC(=O)c1ccccc1Nc1nc(Nc2cccc(CS(C)(=O)=O)c2)ncc1C.O=CO test_target=MLCK observation_type=%Inh value_units=% assay_value=41
molecule=c1ccc(Oc2ccc(Nc3ccnc4ccc(-c5ccccn5)cc34)cc2)cc1 test_target=MLCK observation_type=%Inh value_units=% assay_value=13
molecule=Cn1cc(-c2cccc3c(N)c(C(N)=O)nnc23)cn1 test_target=MLCK observation_type=%Inh value_units=% assay_value=0
molecule=COc1cccc(OC)c1C(=O)Nc1cccc(-c2nn3ccccc3c2-c2ccnc(Nc3cccc(F)c3)n2)c1 test_target=MLCK observation_type=%Inh value_units=% assay_value=2
molecule="COC(=O)c1cccc(NC(=O)NC2CCN(c3ccnc(Nc4cc(OC)c(OC)c(OC)c4)n3)C2)c1 (stereo not shown)" test_target=MLCK observation_type=%Inh value_units=% assay_value=12
molecule=NC(=O)Nc1sc(-c2ccc(F)cc2)cc1C(N)=O test_target=MLCK observation_type=%Inh value_units=% assay_value=0

* * *

Catalogue of %Inh readings, one per entry.
system: RIPK2; conditions: concentration: 1 μM,replicates: in singlicate; n = 1
observation-type: %Inh (%)

smiles_entry=O=C(NCC1CC1)c1ccc(-c2cc(C(=O)NC3CC3)ccc2F)cc1 assay_value=0
smiles_entry=CNC(=O)c1ccccc1Nc1nc(Nc2cccc(CS(C)(=O)=O)c2)ncc1C.O=CO assay_value=30
smiles_entry=C[C@@H]1CNc2c(sc3ccc4nc(-c5ccc(O)cc5)ccc4c23)C(=O)N1 assay_value=27
smiles_entry=CC(C)S(=O)(=O)N1CCN(Cc2ccc3c(c2)nc(NC(=O)c2ccsc2)n3C[C@H](O)c2ccccc2)CC1 assay_value=4
